# IC50 values compiled below
# MEASURED TARGET: NAD-dependent protein deacetylase sirtuin-1 (Homo sapiens)
# Sequence (Q96EB6 whole entry): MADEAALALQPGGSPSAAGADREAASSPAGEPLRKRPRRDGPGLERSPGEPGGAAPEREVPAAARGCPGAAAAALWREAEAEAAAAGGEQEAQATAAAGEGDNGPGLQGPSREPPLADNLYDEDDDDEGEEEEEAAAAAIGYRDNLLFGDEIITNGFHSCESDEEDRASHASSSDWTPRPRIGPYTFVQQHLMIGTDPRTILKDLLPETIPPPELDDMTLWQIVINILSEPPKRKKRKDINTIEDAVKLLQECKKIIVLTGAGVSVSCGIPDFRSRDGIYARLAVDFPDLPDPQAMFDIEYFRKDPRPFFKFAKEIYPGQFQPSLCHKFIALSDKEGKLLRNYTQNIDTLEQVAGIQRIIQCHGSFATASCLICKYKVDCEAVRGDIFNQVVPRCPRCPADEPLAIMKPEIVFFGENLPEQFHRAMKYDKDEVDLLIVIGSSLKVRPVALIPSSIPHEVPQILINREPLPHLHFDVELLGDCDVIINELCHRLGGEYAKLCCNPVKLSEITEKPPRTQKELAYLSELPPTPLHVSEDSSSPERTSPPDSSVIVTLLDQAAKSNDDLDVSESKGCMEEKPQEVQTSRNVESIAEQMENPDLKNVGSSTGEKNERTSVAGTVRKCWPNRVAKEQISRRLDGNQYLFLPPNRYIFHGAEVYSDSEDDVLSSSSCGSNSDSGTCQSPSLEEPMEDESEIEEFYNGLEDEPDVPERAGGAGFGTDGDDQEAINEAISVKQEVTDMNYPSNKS
# ASSAY OVERVIEW: Inhibition of human SIRT1

>>> measured("CN(C)CCCn1cc(C2=C(c3c[nH]c4ccccc34)C(=O)NC2=O)c2ccccc21")
"> 50 µM"

Now examine the next entry.
Notebook entry, NAD-dependent protein deacetylase sirtuin-1 (Homo sapiens) assay: IC50 of CN1C(=O)C(c2c[nH]c3ccccc23)=C(c2c[nH]c3ccccc23)C1=O = ?
> 50 µM

----------
# MEASURED TARGET: NAD-dependent protein deacetylase sirtuin-2 (Homo sapiens)
# ASSAY OVERVIEW: Inhibition of human recombinant SIRT2 by radioactive deacetylase assay
Measured IC50 accompanies every entry in the list below.
Report the figure in µM without appending any unit label.

>>> measured("CN(C)CCCn1cc(C2=C(c3c[nH]c4ccccc34)C(=O)NC2=O)c2ccccc21")
11.7

In the following, a different molecule is considered.
Entry under review: CN1C(=O)C(c2c[nH]c3ccccc23)=C(c2c[nH]c3ccccc23)C1=O . Reported IC50?
24.1

----------
# MEASURED TARGET: NAD-dependent protein deacetylase sirtuin-2 (Homo sapiens, UniProt Q8IXJ6)
# Sequence (Q8IXJ6 whole entry): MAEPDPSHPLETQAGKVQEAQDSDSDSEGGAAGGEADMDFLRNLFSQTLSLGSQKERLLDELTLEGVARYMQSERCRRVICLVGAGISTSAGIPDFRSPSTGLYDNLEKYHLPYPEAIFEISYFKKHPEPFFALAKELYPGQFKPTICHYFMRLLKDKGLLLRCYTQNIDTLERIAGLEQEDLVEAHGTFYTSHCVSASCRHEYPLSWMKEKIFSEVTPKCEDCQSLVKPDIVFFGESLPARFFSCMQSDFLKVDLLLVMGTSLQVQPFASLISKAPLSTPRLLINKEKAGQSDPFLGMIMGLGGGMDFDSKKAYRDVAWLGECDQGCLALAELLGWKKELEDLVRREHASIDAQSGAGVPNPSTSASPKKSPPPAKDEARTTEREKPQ
# ASSAY OVERVIEW: Inhibition of human recombinant SIRT2
OBSERVED PROPERTY: IC50

What IC50 value was documented for this molecule, CN1C(=O)C(c2cn(CCCCCCCO)c3ccccc23)=C(c2cn(CCCCCCCO)c3ccccc23)C1=O ?
> 100 µM

Give the measured IC50 of Cn1c2ccccc2c2c3c(c4c5ccccc5n(CCC#N)c4c21)CNC3=O .
> 100 µM

Would you mind telling me what IC50 value was observed for O=C1NC(=O)C2=C1c1cn(c3ccccc13)CCOC(C(O)CO)CCn1cc2c2c(F)cccc21 (stereo unspecified) ?
> 50 µM

Please report the recorded IC50 for CCCCCCCn1cc(C2=C(c3cn(CCCCCCC)c4ccccc34)C(=O)N(C)C2=O)c2ccccc21 .
> 100 µM

Record request: IC50 value, item O=C1Cc2c([nH]c3ccc(Br)cc23)-c2ccccc2N1
> 100 µM

Form field: reported IC50 of CN(C)C[C@H]1OCCn2cc(c3ccccc32)C2=C(C(=O)NC2=O)c2cn(c3cccc(F)c23)C[C@H]1F
> 50 µM
